B1: TPR t1 (parent)
chain: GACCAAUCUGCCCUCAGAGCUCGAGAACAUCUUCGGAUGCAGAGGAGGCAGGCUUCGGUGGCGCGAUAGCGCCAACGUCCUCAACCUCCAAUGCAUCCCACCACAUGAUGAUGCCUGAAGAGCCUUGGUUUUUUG

- Variants of: B1
- procedure-details: polymerase ribozyme fitness, log enrichment relative to wild type (log ratio); higher = more active; in vitro selection for triplet polymerase activity
Property: polymerase ribozyme fitness (log ratio); scope: individual variants
Please give the numeric answer without any surrounding text.

# mutant-id, polymerase ribozyme fitness (log ratio)
rows = [
    ("C62U U81C C101U", -0.199),
    ("U7A A24C C40G G93U U112A C123U", -5.82),
    ("U59C C64U C82G C94U", -1.7),
    ("C82G C123G U126C G128C", -2.13),
    ("A37C U54A G93C", -1.23),
]

Q: May I ask what polymerase ribozyme fitness (log ratio) has been recorded for A90G U125G ?
Ans: -0.567

Q: Quick check: polymerase ribozyme fitness (log ratio) of C70A C101A ?
Ans: -2.43
